- experiment.summary: qHTS for differential inhibitors of proliferation of Plasmodium falciparum line HB3 (AID 1886);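 also: parasites grown with compound for 72 h before SYBR Green readout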
- recorded.conditions: Plasmodium falciparum HB3 proliferation inhibition; series mostly up to 28.7 µM
Inconclusive results are not listed. Active and inactive are the calls of the source. Calls follow the shape of the dose curve; as a rule, active = well fitted curve in the direction sought with a large enough effect; inconclusive = small, poorly fitted or top-dose-only effect, or another doubt; inactive = no such curve, though single readings can be large or run the other way.
Valid outcomes are listed here; reply with one: active, inactive

1) OC[C@H]1O[C@@H](n2cnc3c(NC4CCCCC4)ncnc32)[C@H](O)[C@@H]1O
inactive
2) CC(C)(C)c1ccc(S(=O)(=O)/C=C/C#N)cc1
active
3) NC(N)=NC(=O)c1nc(Cl)c(N2CCCCCC2)nc1N
active
4) O=C(c1cc(O)c(O)c([N+](=O)[O-])c1)c1ccccc1F
inactive
5) N#C/C(=C\c1c[nH]c2ccccc12)C(=O)c1ccc(O)c(O)c1
active

// return assay outcome for OCC1O[C@H](O)C(Cl)C(O)C1O (stereo partly drawn)
inactive

// return assay outcome for O=C(O)/C=C/C(O)c1ccc(Cl)cc1 (stereo not drawn)
inactive

// return assay outcome for `Ic1ccc(N2CCN(Cc3c[nH]c4ncccc34)CC2)cc1`
active

// return assay outcome for O=C(O)CNC(=O)C(CS)Cc1ccccc1 (stereo not drawn)
inactive

// return assay outcome for `O=C(O)[C@@H]1C[C@@H](C(=O)O)N1`
inactive

// return assay outcome for `CN1CCC[C@H]1c1cccnc1`
inactive

// return assay outcome for CCCCCCCCCCCCCCCCCC(=O)OC(CC(=O)O)C[N+](C)(C)C (stereo not drawn)
inactive

// return assay outcome for `NCCSSCCN`
inactive

// return assay outcome for `Fc1ccc(C(OCCCc2cnc[nH]2)c2ccc(F)cc2)cc1`
active

// return assay outcome for `COc1ccccc1N1CCN(CCCCNS(=O)(=O)c2cccc3c(N(C)C)cccc23)CC1`
active

----------
- system.tested: Phenylethanolamine N-methyltransferase (Homo sapiens) (UniProt P11086)
- Sequence (P11086 whole entry, looked up): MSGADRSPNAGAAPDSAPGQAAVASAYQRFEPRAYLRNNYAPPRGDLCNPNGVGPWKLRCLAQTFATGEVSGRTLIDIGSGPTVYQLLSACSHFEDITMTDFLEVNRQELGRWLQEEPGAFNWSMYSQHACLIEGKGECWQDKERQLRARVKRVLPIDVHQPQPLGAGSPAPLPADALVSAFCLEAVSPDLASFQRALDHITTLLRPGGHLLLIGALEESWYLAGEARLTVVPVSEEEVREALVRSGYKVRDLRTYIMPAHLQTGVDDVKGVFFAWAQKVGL
- experiment.summary: Confirmatory Screen for Target Class Profiling of Small Molecule Inhibitors of Methyltransferases (AID 1745852)
- recorded.conditions: MTase-Glo luminescence, SAH detection, recombinant enzyme; measured here: PNMT max response; stronger effect = lower value
observation.type: activity (%)
Reply with just the number (in %).

Consider the following illustrative entries.
1) COc1cc(/C=C/C(=O)CC(=O)/C=C/c2ccc(O)c(OC)c2)ccc1O
9.5
2) O=C1C(SCCO)=C(SCCO)C(=O)c2ccccc21
-72.3
3) COC1=C(OC)C(=O)c2ccccc2C1=O
-70.6
4) O=Nc1ccc2oc(=O)ccc2c1
5.38
5) CC(C)(C)c1ccc(S(=O)(=O)/C=C/C#N)cc1
5.53
6) O=C(O)CNC(=O)C(CS)Cc1ccccc1 (stereo not drawn)
8.57
7) Oc1ccccc1O
8.37
8) O=C(c1cc(O)c(O)c([N+](=O)[O-])c1)c1ccccc1F
-23.2

Please list activity recorded for the compound `CC(C)(C=O)Cc1cc(C(C)(C)C)c(O)c(C(C)(C)C)c1`
-4.11

----------
Each entry below carries its recorded activity change, negative = inhibition.
- experiment.summary: qHTS Assay for Lipid Storage Modulators (AID 1519); also: % is scaled to controls: 0 for no effect and ±100 for the full control effect
- recorded.conditions: Drosophila S3 cells, BODIPY lipid droplet/cell ratio, laser cytometry; at 57.5 µM (top of the series); cells loaded with oleic acid
Records with an inconclusive call do not appear.
Reply with just the number (in %).

1) O=C(O)CNC(=O)C(CS)Cc1ccccc1 (configuration not stated)
0.149
2) C[C@@H](CN1CCC(Cc2ccccc2)CC1)[C@@H](O)c1ccc(O)cc1
0.466
3) CCN1/C(=C/C(C)=O)Sc2ccc(OC)cc21
0.847
4) Ic1ccc(N2CCN(Cc3c[nH]c4ncccc34)CC2)cc1
0.316
5) O=C(O)c1cc([N+](=O)[O-])ccc1NCCCc1ccccc1
0.312

Please list activity change, negative = inhibition recorded for the compound `CN(C)c1nc(N)c(C(=O)N=C(N)N)nc1Cl`
1.32

Please list activity change, negative = inhibition recorded for the compound CN1CCc2cc(O)c(O)cc2C(c2ccccc2)C1 (configuration not stated)
-0.441

Please list activity change, negative = inhibition recorded for the compound `Oc1ccccc1O`
-4.75

Please list activity change, negative = inhibition recorded for the compound `N#C/C(=C\c1ccc(O)c(O)c1)C(=O)c1ccc(O)c(O)c1`
-0.353

Please list activity change, negative = inhibition recorded for the compound `Nc1nc(Cl)nc2c1ncn2[C@@H]1O[C@H](CO)[C@@H](O)[C@H]1O`
5.13

Please list activity change, negative = inhibition recorded for the compound CN(C)CCC(c1ccc(Cl)cc1)c1ccccn1 (configuration not stated)
1.75

Please list activity change, negative = inhibition recorded for the compound `CC1(C)CCC=[N+]1[O-]`
0.483

----------
- system.tested: Peroxisome proliferator-activated receptor alpha (Homo sapiens) (UniProt Q07869)
- Sequence (Q07869 whole entry, looked up): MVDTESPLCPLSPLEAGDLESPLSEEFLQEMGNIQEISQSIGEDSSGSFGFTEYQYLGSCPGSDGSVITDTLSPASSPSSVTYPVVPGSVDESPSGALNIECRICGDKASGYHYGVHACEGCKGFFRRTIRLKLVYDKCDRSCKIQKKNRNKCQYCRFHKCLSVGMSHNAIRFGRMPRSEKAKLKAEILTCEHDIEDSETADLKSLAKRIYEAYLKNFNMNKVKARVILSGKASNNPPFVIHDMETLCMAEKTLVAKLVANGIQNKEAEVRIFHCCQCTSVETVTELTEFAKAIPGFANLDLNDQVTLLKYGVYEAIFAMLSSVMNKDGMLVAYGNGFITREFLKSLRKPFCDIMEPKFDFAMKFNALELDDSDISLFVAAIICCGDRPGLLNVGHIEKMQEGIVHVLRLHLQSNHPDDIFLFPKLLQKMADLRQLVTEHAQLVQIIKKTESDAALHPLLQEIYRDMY
- experiment.summary: qHTS assay for small molecule agonists of the peroxisome proliferator-activated receptor alpha (PPARalpha) signaling pathway (AID 651778); also: % of control where 0% means no effect
- recorded.conditions: PathHunter PPARalpha complementation, chemiluminescence, 6 h; stronger effect = higher value
Each entry below carries its recorded max response.
Reply with just the number (in %).

1. Oc1ccccc1O
-0.837
2. CN(C)CCC(c1ccc(Cl)cc1)c1ccccn1 (configuration not stated)
-7.82
3. N=C1N=C(N)c2cc3ccccc3cc21
-3.58

Kindly consider the entry below.
Please list max response recorded for the compound `O=C(Nc1ccccc1)c1cc([N+](=O)[O-])ccc1Cl`
0.605

----------
- system.tested: Pyruvate kinase (Leishmania mexicana)
- experiment.summary: qHTS Validation Assay for Activators of Leishmania Mexicana Pyruvate Kinase (AID 959)
- recorded.conditions: purified L. mexicana pyruvate kinase, enzyme activity; series mostly up to 57.5 µM
Activity calls are given as the source filed them. Calls come from the whole dose curve; as a rule, active = well fitted activation curve with a large enough effect; inconclusive = small, poorly fitted or top-dose-only effect; inactive = no such curve, though single readings can be large or run the other way.
Valid outcomes are listed here; reply with one: active, inactive

As a guide, the following entries are already answered.
1) NC(N)=NC(=O)c1nc(Cl)c(N2CCCCCC2)nc1N
inactive
2) CN1CCc2cc(NC(=O)Nc3cccnc3)ccc21
inactive
3) CN=c1nc(-c2ccccc2)n(-c2ccccc2)s1
inactive

// return assay outcome for `O=C(Nc1cccc(C(=O)Nc2ccc(S(=O)(=O)O)c3cc(S(=O)(=O)O)cc(S(=O)(=O)O)c23)c1)Nc1cccc(C(=O)Nc2ccc(S(=O)(=O)O)c3cc(S(=O)(=O)O)cc(S(=O)(=O)O)c23)c1`
active

// return assay outcome for `COc1ccc(/C=C/C(=O)Nc2ccccc2C(=O)O)cc1OC`
inactive

// return assay outcome for `Cc1ccc(O)c(N=Nc2ccccc2)n1`
inactive

----------
- experiment.summary: MultiTox-Fluor Cytotoxicity Assay - LYMP1-003 - Live Cells (AID 962);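 also: cells exposed to compound for 16 hours at 37 °C; 0% = DMSO only and full loss = 92 µM tetraoctylammonium bromide; cytotoxic hits lower the live-cell protease signal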
- recorded.conditions: LYMP1-003 lymphoblastoid cells, MultiTox-Fluor live-cell protease fluorescence; series mostly up to 92.2 µM
Active and inactive are the calls of the source. Calls come from the whole dose curve; as a rule, active = well fitted cell-killing curve with a large enough effect; inconclusive = small, poorly fitted or top-dose-only effect; inactive = flat fitted curve, though single readings scatter.
Valid outcomes are listed here; reply with one: active, inactive

As a guide, the following entries are already answered.
1) CCCCCCCCCCCCCCCCCC(=O)O
inactive
2) O=C(O)/C=C\C(=O)O
inactive
3) CC1(C)S[C@@H]2[C@H](NC(=O)[C@H](N)c3ccccc3)C(=O)N2[C@H]1C(=O)O
inactive

// return assay outcome for `c1ccc2sc(SSc3nc4ccccc4s3)nc2c1`
inactive

----------
- Tested on: CRL-7250
- experiment.summary: Cytotoxic Profiling of Annotated Libraries Using Quantitative High-Throughput Screening (AID 1296008); also: % is scaled to controls: 0 for no effect and ±100 for the full control effect; nearly all actives have a fitted effect of over 60% in size
- recorded.conditions: Five cell lines viability, CellTiter-Glo ATP luminescence, 48-72 h; stronger effect = lower value
Results filed as inconclusive are left out. Where a SMILES comes first, the peptide text is derived from it. [ ]: non-standard residue; d: D form. pGlu = O=C1CC[C@@H](C(=O)O)N1; Thz = O=C(O)[C@@H]1CSCN1
Each entry below carries its recorded max response.
Reply with just the number (in %).

Consider the following illustrative entries.
1) CCCCCCCCCCCCOCCO
-9.14
2) NCCO
-2.34

Please list max response recorded for the compound CC(N)C(=O)OC(C)(C)Cc1ccc(Cl)cc1 (stereo not given)
4.4

Please list max response recorded for the compound `COc1cc2c3cc1Oc1cc(ccc1O)C[C@@H]1c4c(cc(OC)c(O)c4Oc4ccc(cc4)C[C@@H]3N(C)CC2)CC[N+]1(C)C`
1.72

Please list max response recorded for the compound `Cc1c(Nc2ncccc2C(=O)O)cccc1C(F)(F)F`
-2.3

Please list max response recorded for the compound CN1[C@@H]2CC[C@H]1CC(OC(c1ccccc1)c1ccccc1)C2 (stereo not given in full)
0.151

Please list max response recorded for the compound `Cc1c(N)c(=O)n(-c2ccccc2)n1C`
4.52

Please list max response recorded for the compound `Nc1ccc(O)c([N+](=O)[O-])c1`
4.51

Please list max response recorded for the compound `Nc1ccc([N+](=O)[O-])cc1O`
-25

Please list max response recorded for the compound `CC1(C)[C@@H](O[C@H]2O[C@H](C(=O)O)[C@@H](O)[C@H](O)[C@H]2O[C@@H]2O[C@H](C(=O)O)[C@@H](O)[C@H](O)[C@H]2O)CC[C@]2(C)[C@H]3C(=O)C=C4[C@@H]5C[C@@](C)(C(=O)O)CC[C@]5(C)CC[C@@]4(C)[C@]3(C)CC[C@@H]12`
-24.4

Please list max response recorded for the compound Cc1ccc2c(n1)Oc1ccc(C(C)C(=O)OCC(=O)N(C)C)cc1C2 (stereo not given)
4.34

Please list max response recorded for the compound CC(=O)SCC(CC(=O)c1ccc(C)cc1)C(=O)O (stereo not given)
2.17

Please list max response recorded for the compound `CC1(C)S[C@@H]2[C@H](NC(=O)[C@H](NC(=O)N3CCN(S(C)(=O)=O)C3=O)c3ccccc3)C(=O)N2[C@H]1C(=O)O`
4.22

Please list max response recorded for the compound O=C1CC[C@@H](C(=O)N2CSC[C@H]2C(=O)O)N1 ([pGlu]-[Thz]-OH)
-1.65

Please list max response recorded for the compound `CCCCN(CC)c1nc(C)nc2c1c(C)cn2-c1c(C)cc(C)cc1C`
-5.83

Please list max response recorded for the compound `CNC(=O)c1c(I)c(NC(=O)CCCCC(=O)Nc2c(I)c(C(=O)O)c(I)c(C(=O)NC)c2I)c(I)c(C(=O)O)c1I`
-5.95

Please list max response recorded for the compound `O=C(CCN1CCN(CCO)CC1)N1c2ccccc2Sc2ccc(C(F)(F)F)cc21`
-6.26

Please list max response recorded for the compound `CN(C)CCn1nnnc1SCC1=C(C(=O)O)N2C(=O)[C@@H](NC(=O)Cc3csc(N)n3)[C@H]2SC1`
-7.23

Please list max response recorded for the compound `O=C(Nc1ccc2c(c1)CCN(Cc1ncn[nH]1)C2)c1ccccc1-c1ccc(C(F)(F)F)cc1`
-23.1

Please list max response recorded for the compound `Nc1c(CC(=O)O)cccc1C(=O)c1ccc(Br)cc1`
4.53
